assay_text: Irwin
Parameters: species or system mice
measurement_setup: mouse, in vivo, po
reported_property: NOAEL (mg/kg)

compound	unit_name	reading
N[C@H]1C=C(C(=O)O)CC1=C(F)F [Compound 5]	mg/kg	6

---

target_under_test: alanine aminotransferase (Ala-AT)
assay_text: Inhibition of alanine aminotransferase
Assay type: biochemical
measurement_setup: reversible inhibition
pIC50: −log10 of the molar value.
reported_property: pIC50

1. N[C@H]1C=C(C(=O)O)CC1=C(F)F < 2.40
